# system-tested: EGFR L858R mutant (Homo sapiens (Human), UniProt P00533, L858R)
# Sequence (P00533 25-1210 L858R): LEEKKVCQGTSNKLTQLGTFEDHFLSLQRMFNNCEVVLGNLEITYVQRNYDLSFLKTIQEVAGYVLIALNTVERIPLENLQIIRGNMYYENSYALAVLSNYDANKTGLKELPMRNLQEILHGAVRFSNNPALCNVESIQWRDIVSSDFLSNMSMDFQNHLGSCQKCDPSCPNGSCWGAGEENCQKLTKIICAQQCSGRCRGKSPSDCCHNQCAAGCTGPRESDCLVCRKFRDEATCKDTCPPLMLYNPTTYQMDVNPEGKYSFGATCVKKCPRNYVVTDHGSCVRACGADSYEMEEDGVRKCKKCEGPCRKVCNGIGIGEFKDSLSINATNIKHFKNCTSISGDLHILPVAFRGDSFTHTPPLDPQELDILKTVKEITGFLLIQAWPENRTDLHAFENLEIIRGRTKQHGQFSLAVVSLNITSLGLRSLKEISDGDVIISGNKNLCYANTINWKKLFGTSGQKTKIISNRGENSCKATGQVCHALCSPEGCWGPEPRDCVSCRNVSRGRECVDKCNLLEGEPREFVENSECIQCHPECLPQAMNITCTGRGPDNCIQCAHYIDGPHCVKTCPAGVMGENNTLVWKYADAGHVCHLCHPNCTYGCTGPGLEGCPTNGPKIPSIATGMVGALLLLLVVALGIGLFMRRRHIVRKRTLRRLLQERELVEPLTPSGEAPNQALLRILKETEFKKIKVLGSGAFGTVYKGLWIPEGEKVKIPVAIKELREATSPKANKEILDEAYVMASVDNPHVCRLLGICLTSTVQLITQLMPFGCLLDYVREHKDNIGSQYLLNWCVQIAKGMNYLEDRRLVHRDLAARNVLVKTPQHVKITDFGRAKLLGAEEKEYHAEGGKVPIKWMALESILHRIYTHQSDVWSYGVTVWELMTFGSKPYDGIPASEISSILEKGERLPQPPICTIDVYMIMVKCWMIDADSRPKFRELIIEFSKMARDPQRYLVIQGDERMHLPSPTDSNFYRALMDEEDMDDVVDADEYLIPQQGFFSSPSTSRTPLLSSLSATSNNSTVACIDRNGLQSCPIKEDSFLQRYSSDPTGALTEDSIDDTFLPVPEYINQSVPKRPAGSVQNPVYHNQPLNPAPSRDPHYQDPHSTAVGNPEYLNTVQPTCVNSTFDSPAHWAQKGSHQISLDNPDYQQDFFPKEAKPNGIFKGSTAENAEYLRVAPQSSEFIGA
# experimental-details: HotSpot radiometric kinase assay, EGFR L858R mutant
# experimental-parameters: 10 μM ATP
Entries and their log10 of IC50
Lab note - IC50 converted to log10 from values in nM.

Reference set, count: 5
>>> df
                                   compound       quantity  observed_value
0  CCOc1nn(CCO)c2c1/C=C/c1n[nH]c3ccc(cc13)-c1cnn(C)c1O[C@@H]1CN(C)C[C@H]1N(C)C2 (single isomer, unassigned) [Ex. 271]  log10 of IC50            3.20
1  CCc1nn(C)c2c1/C=C/c1n[nH]c3ccc(cc13)-c1cnn(C)c1OCC[C@@H](C)O2 [Ex. 15]  log10 of IC50            2.02
2  Cc1nn([C@H]2C[C@@H](N(C)CCN(C)C)C2)c2c1/C=C/c1n[nH]c3ccc(cc13)-c1cnn(C)c1OCCCO2 [Example 103]  log10 of IC50            2.01
3  CC(C)Oc1nn(CCO)c2c1/C=C/c1n[nH]c3ccc(cc13)-c1cnn(C)c1O[C@@H](C)CN(C)[C@@H]2C [Example 223]  log10 of IC50            0.85
4  Cc1c2c(nn1CCO)CNC[C@H](C)Oc1c(cnn1C)-c1ccc3[nH]nc(c3c1)/C=C/2 [Example 49]  log10 of IC50            2.94

Q. What measured log10 of IC50 goes with Cc1c2c(nn1C)CN(C)CCOc1c(cnn1C)-c1ccc3[nH]nc(c3c1)/C=C/2 [Example 44] ?
A. 2.45

Q. What measured log10 of IC50 goes with CN1CCN(Cc2ccc3c(c2)O[C@@H]2CCN(CCOc4c(cnn4C)-c4ccc5[nH]nc(c5c4)/C=C/3)C2=O)CC1 [Example 92] ?
A. 0.61

###

# system-tested: EGFR L858R mutant (Homo sapiens (Human), UniProt P00533, L858R)
# experimental-details: HotSpot radiometric kinase assay, EGFR L858R mutant
# experimental-parameters: 10 μM ATP
Decision: IC50 beneath 8 nM gives t; IC50 meeting or exceeding 8 nM gives f.

                                        mol                             system_tested  discrete_label
0  CCN1Cc2c(c(OC(C)C)nn2CC(C)(C)O)/C=C/c2n[nH]c3ccc(cc23)-c2cnn(C)c2O[C@@H](C)C1  EGFR L858R mutant (Homo sapiens (Human), UniProt P00533, L858R)               f
1  C[C@H]1CN(C)Cc2c(c(OC3CCN(S(C)(=O)=O)CC3)nn2C)/C=C/c2n[nH]c3ccc(cc23)-c2cnn(C)c2O1  EGFR L858R mutant (Homo sapiens (Human), UniProt P00533, L858R)               f
2  CCOc1nn([C@@H](C)CO)c2c1/C=C/c1n[nH]c3ccc(cc13)-c1cnn(C)c1O[C@@H](C)CN(C)C2  EGFR L858R mutant (Homo sapiens (Human), UniProt P00533, L858R)               t

Q. Here's an entry: C[C@H]1CN(C)Cc2c(c(OC3CN(S(C)(=O)=O)C3)nn2CCO)/C=C/c2n[nH]c3ccc(cc23)-c2cnn(C)c2O1 . Is its IC50 below 8 nM?
A. t

Q. Here's an entry: CCOc1nn(CCO)c2c1/C=C/c1n[nH]c3ccc(cc13)-c1cnn(C)c1O[C@@H](C)CN(CC)C2 . Is its IC50 below 8 nM?
A. t

Q. Here's an entry: Cc1nn(C)c2c1/C=C/c1n[nH]c3ccc(cc13)-c1cnn(C)c1O[C@@H](C)CN(C1COC1)C2 . Is its IC50 below 8 nM?
A. f

###

# system-tested: EGFR L858R/T790M/C797S mutant (Homo sapiens (Human), UniProt P00533, C797S/L858R/T790M)
# Sequence (P00533 25-1210 T790M/C797S/L858R): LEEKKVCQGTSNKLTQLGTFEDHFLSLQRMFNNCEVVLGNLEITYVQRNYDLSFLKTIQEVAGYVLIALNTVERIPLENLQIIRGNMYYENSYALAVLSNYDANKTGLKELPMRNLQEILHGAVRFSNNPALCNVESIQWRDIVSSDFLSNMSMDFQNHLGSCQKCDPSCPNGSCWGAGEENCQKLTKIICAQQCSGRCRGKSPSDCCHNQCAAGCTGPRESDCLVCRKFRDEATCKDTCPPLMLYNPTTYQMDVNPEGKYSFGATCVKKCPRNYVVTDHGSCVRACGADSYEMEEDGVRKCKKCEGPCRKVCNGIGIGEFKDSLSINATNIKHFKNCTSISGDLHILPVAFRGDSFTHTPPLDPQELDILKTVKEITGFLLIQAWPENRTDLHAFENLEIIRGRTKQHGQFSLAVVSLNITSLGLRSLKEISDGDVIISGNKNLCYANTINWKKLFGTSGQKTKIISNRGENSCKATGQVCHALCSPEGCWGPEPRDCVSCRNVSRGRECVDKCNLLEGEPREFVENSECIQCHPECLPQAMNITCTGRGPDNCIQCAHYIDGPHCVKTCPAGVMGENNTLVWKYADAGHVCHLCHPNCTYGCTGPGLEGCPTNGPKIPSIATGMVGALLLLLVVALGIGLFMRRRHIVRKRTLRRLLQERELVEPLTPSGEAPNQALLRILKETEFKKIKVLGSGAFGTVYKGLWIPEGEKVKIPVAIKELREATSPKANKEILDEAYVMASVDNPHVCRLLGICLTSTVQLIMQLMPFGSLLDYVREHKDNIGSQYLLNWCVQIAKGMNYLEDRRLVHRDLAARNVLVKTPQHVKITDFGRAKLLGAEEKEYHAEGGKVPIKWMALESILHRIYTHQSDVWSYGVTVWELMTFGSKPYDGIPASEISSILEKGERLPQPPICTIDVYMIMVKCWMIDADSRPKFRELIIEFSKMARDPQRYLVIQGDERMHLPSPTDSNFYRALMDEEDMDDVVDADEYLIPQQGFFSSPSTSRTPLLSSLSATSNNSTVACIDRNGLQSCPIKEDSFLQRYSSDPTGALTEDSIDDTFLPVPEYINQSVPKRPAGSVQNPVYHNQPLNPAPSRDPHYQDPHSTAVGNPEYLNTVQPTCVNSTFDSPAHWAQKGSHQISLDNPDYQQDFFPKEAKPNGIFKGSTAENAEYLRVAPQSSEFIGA
# experimental-details: HotSpot radiometric kinase assay, EGFR L858R/T790M/C797S mutant
# Assay type: biochemical
# experimental-parameters: 10 μM ATP
Decision: IC50 beneath 5 nM gives yes (1); IC50 meeting or exceeding 5 nM gives no (0).

                                   compound  discrete_label
0  Cc1onc2c1/C=C/c1n[nH]c3ccc(cc13)-c1cnn(C)c1O[C@@H](C)CN(C)C2          no (0)
1  CCc1nn(CCO)c2c1/C=C/c1n[nH]c3ccc(cc13)-c1cnn(C)c1OCCCO2          no (0)
2  CC(C)Oc1nn(CCO)c2c1/C=C/c1n[nH]c3cc(F)c(cc13)-c1cnn(C)c1O[C@H](C)CN(C(C)C)C2         yes (1)
3  CCOc1nn(CCO)c2c1/C=C/c1n[nH]c3ccc(cc13)-c1cnn(C)c1O[C@@H](CC)CN(C)C2         yes (1)
4  CCOc1nn(CCO)c2c1/C=C/c1n[nH]c3ccc(cc13)-c1cnn(C)c1O[C@@H](C)CN(C)C2         yes (1)

Q. Here's an entry: Cc1c2c(nn1[C@H]1C[C@@H](NCCN(C)C)C1)OCCCOc1c(cnn1C)-c1ccc3[nH]nc(c3c1)/C=C/2 . Is its IC50 below 5 nM?
A. no (0)

Q. Here's an entry: CC(C)Oc1nn(CCO)c2c1/C=C/c1n[nH]c3ccc(cc13)-c1cnn(C)c1O[C@@H](C)CN(C)C2 . Is its IC50 below 5 nM?
A. yes (1)

Q. Here's an entry: CCc1nn(C)c2c1/C=C/c1n[nH]c3ccc(cc13)-c1cnn(C)c1OCC[C@H](C)O2 . Is its IC50 below 5 nM?
A. no (0)

Q. Here's an entry: C[C@H]1CN(C)Cc2c(c(O)nn2C)/C=C/c2n[nH]c3ccc(cc23)-c2cnn(C)c2O1 . Is its IC50 below 5 nM?
A. yes (1)

Q. Here's an entry: Cc1c2c(nn1C1CCN(C)C1)OCCN(C)Cc1c(cnn1C)-c1ccc3[nH]nc(c3c1)/C=C/2 (centres unmarked) . Is its IC50 below 5 nM?
A. no (0)

Q. Here's an entry: Cn1ncc2c1OCCN1CC[C@@H](Oc3ccccc3/C=C/c3n[nH]c4ccc-2cc34)C1=O . Is its IC50 below 5 nM?
A. yes (1)

Q. Here's an entry: Cc1nn(C)c2c1/C=C/c1n[nH]c3ccc(cc13)-c1cnn(C)c1OCCCO2 . Is its IC50 below 5 nM?
A. no (0)

Q. Here's an entry: Cc1nn(CCO)c2c1/C=C/c1n[nH]c3ccc(cc13)-c1cnn(C)c1O[C@@H](C)CN(C(C)C)C2 . Is its IC50 below 5 nM?
A. yes (1)

Q. Here's an entry: Cc1nn(C)c2c1/C=C/c1n[nH]c3ccc(cc13)-c1cnn(C)c1OCCN1CC[C@@H](O2)C1=O . Is its IC50 below 5 nM?
A. no (0)

Q. Here's an entry: C[C@H]1CN(C)Cc2c(c(OCC#N)nn2CCO)/C=C/c2n[nH]c3ccc(cc23)-c2cnn(C)c2O1 . Is its IC50 below 5 nM?
A. yes (1)

Q. Here's an entry: CCOc1noc2c1/C=C/c1n[nH]c3ccc(cc13)-c1cnn(C)c1O[C@@H](C)CN(C)C2 . Is its IC50 below 5 nM?
A. yes (1)

Q. Here's an entry: Cc1nn(C)c2c1/C=C/c1n[nH]c3ccc(cc13)-c1cnn(C)c1O[C@@H](C)CN(C)C2 . Is its IC50 below 5 nM?
A. yes (1)

Q. Here's an entry: Cc1nn([C@H]2CC[C@@H]2O)c2c1/C=C/c1n[nH]c3ccc(cc13)-c1cnn(C)c1OCCCO2 (racemic) . Is its IC50 below 5 nM?
A. no (0)

Q. Here's an entry: Cn1ncc2c1OCCN1CC[C@@H](Oc3ccc(F)cc3/C=C/c3n[nH]c4ccc-2cc34)C1=O . Is its IC50 below 5 nM?
A. no (0)

Q. Here's an entry: Cc1c2c(nn1C)CN(C)C[C@H](C)Oc1c(cnn1C)-c1ccc3[nH]nc(c3c1)/C=C/2 . Is its IC50 below 5 nM?
A. yes (1)

Q. Here's an entry: C[C@H]1CN(C)Cc2c(c(OC3CC(S(C)(=O)=O)C3)nn2C)/C=C/c2n[nH]c3ccc(cc23)-c2cnn(C)c2O1 (some centres unmarked) . Is its IC50 below 5 nM?
A. yes (1)

Q. Here's an entry: Cn1ncc2c1OCCCOc1nn3ccn(C)c(=O)c3c1/C=C/c1n[nH]c3ccc-2cc13 . Is its IC50 below 5 nM?
A. no (0)

Q. Here's an entry: Cc1nn([C@H]2CCN(C)C[C@@H]2O)c2c1/C=C/c1n[nH]c3ccc(cc13)-c1cnn(C)c1OCCCO2 (racemic) . Is its IC50 below 5 nM?
A. no (0)
